Origin of values: ChEMBL document CHEMBL5104121

Molecular target: TLR2/TLR6 (Homo sapiens, UniProt O60603+Q9Y2C9)
Test: Agonist activity at TLR2/TLR6 in human PBMC cells assessed as increase in TNF-alpha production at 0.1 ug/ml incubated for 24 hrs
Assay type: cell-based
Conditions: filed as agonist, dose 0.1 µg/ml
Activity calls are given as the source filed them. The rule behind the calls is not given here. Where a SMILES comes first, the peptide text is derived from it. The star is where a group is joined. Propyl(2R-PamO,3-PamO) = CCCCCCCCCCCCCCCC(=O)OC[C@H](C*)OC(=O)CCCCCCCCCCCCCCC; Palmitoyl = CCCCCCCCCCCCCCCC(=O)*

Compound	Tgt	Activity
CCCCCCCCCCCCCCCC(=O)OC[C@H](CSC[C@H](N)C(=O)N[C@@H](CO)C(=O)N[C@@H](CCCCN)C(=O)N[C@@H](CCCCN)C(=O)N[C@@H](CCCCN)C(=O)N[C@@H](CCCCN)C(=O)O)OC(=O)CCCCCCCCCCCCCCC (H-C(Propyl(2R-PamO,3-PamO))SKKKK-OH)	TLR2/TLR6 (Homo sapiens, UniProt O60603+Q9Y2C9)	Active
CCCCCCCCCCCCCCCC(=O)N[C@@H](CSC[C@@H](COC(=O)CCCCCCCCCCCCCCC)OC(=O)CCCCCCCCCCCCCCC)C(=O)N[C@@H](CO)C(=O)N[C@@H](CCCCN)C(=O)N[C@@H](CCCCN)C(=O)N[C@@H](CCCCN)C(=O)N[C@@H](CCCCN)C(=O)O (Palmitoyl-C(Propyl(2R-PamO,3-PamO))SKKKK-OH)	TLR2/TLR6 (Homo sapiens, UniProt O60603+Q9Y2C9)	Active
